- PROCEDURE_TEXT: Antagonist activity at human CCR5 receptor by chemotaxis assay

{"COMPOUND_STRUCTURE_STRING": "CO[C@@H]1COCC[C@@H]1N[C@@H]1CC[C@](CC(F)(F)F)(C(=O)N2CCN(c3cc(C(F)(F)F)ccn3)CC2)C1", "IC50 / nM": 11}
